Molecular target: human mGluR5A (Homo sapiens (Human), UniProt P41594)
Sequence (P41594 other isoform, or with tags, fused parts or gaps): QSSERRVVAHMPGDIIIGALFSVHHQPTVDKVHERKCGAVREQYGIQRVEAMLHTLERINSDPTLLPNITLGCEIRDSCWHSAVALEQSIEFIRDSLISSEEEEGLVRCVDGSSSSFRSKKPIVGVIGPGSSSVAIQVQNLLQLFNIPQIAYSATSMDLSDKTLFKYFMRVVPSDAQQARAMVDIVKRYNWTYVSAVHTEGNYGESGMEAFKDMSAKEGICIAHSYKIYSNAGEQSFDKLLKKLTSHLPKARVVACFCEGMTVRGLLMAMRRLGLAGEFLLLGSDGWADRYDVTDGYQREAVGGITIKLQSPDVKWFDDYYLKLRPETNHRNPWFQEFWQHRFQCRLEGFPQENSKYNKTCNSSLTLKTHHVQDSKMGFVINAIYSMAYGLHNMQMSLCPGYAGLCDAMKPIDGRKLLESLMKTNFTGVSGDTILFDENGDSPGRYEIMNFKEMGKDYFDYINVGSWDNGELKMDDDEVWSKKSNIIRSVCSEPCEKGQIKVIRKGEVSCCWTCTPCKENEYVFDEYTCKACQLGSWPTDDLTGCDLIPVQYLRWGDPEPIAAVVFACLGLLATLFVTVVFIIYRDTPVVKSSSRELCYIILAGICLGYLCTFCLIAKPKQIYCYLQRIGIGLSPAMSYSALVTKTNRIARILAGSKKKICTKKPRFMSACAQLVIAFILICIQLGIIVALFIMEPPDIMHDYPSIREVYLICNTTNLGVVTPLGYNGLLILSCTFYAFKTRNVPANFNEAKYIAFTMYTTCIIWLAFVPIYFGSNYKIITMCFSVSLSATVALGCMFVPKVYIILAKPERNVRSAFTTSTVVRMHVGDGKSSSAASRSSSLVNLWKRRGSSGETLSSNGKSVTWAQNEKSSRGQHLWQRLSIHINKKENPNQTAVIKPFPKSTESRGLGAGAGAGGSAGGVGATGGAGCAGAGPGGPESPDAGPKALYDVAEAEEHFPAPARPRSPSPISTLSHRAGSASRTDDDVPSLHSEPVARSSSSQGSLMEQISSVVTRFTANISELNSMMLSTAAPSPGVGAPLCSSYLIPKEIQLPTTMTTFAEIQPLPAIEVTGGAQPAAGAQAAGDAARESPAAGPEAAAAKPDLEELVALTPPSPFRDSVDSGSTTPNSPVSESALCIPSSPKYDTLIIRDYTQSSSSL
Experiment: mGluR5 FLIPR Assay
Settings: positive modulator activity, HEK293 (ZF) cells with human mGluR5A and rat GLAST, Ca++ response to ~EC10 l-glutamate
testReadout: EC50 (nM)

INPUT: Query: EC50; subject: O=C1N[C@H](c2cncc(C#CCOC3CCCCO3)c2)[C@@H](c2cccc(F)c2)O1 (stereo partly shown)
OUTPUT: 498

I = COCC(O)CC#Cc1cncc([C@H]2NC(=O)O[C@@H]2c2cccc(F)c2)c1 (stereo partly shown)
II = CCCC(C)C#Cc1cncc([C@H]2NC(=O)O[C@@H]2c2cccc(F)c2)c1 (stereo partly shown)
III = CC(C)(C)OCC#Cc1cncc([C@H]2NC(=O)O[C@@H]2c2cccc(F)c2)c1
INPUT: Put the compounds in ascending order of EC50. // respond by listing labels in the order requested
OUTPUT: II, III, I

====

Target: human mGluR5A (Homo sapiens (Human))
Assay: mGluR5 FLIPR Assay
Settings: positive modulator activity, HEK293 (ZF) cells with human mGluR5A and rat GLAST, Ca++ response to ~EC10 l-glutamate
Description: HEK293 (ZF) cells stably transfected with human mGluR5A (pIRES neo) and the rat glutamate-aspartate transporter (GLAST; pIRES puro) are grown in a monolayer culture at 37° C. in 5% CO2 and fed with Minimum Essential Medium (MEM) supplemented with 10% dialysed fetal bovine serum. […] Test compounds are incubated with cells in the presence of dye for 10 minutes prior to being read on the FLIPR platform (Molecular Devices). […]
pEC50: −log10 of the molar value.
testReadout: pEC50

1 = O=C1N[C@H](c2cncc(C#CC3CC3)c2)[C@@H](c2cccc(Cl)c2Cl)O1 [Example 125]
2 = O=C1N[C@H](c2cncc(C#CC(O)C3CCCCC3)c2)[C@@H](c2cccc(F)c2)O1 (stereo partly shown) [Example 30]
3 = O=C1N[C@H](c2cncc(C#CCn3cccn3)c2)[C@@H](c2cccc(F)c2)O1 [Example 62]
4 = CCCCC#Cc1cncc([C@H]2NC(=O)O[C@@H]2c2cccc(F)c2)c1 [Example 3]
INPUT: Rank the listed compounds, smallest pEC50 first and largest last. Form entry: labels listed in requested order.
OUTPUT: 1, 2, 3, 4
(1: 6.75, 2: 7.07, 3: 7.96, 4: 8.66)

====

Biological target: human mGluR5A (Homo sapiens (Human))
Experiment: mGluR5 FLIPR Assay
Settings: positive modulator activity, HEK293 (ZF) cells with human mGluR5A and rat GLAST, Ca++ response to ~EC10 l-glutamate
pEC50: −log10 of the molar value.
testReadout: pEC50

Check out these entries, answers already filled in.
INPUT: Can you look up pEC50 on human mGluR5A (Homo sapiens (Human)) for O=C1N[C@H](c2cncc(C#CCC3CCOC3)c2)[C@@H](c2cccc(F)c2)O1 (some centres unmarked) [Example 65] ?
OUTPUT: 7.83

INPUT: For the record CCCC(O)C#Cc1cncc([C@H]2NC(=O)O[C@@H]2c2cccc(F)c2)c1 (some centres unmarked) [Example 12] , what value of pEC50 is listed for human mGluR5A (Homo sapiens (Human))?
OUTPUT: 7.81

INPUT: Field: pEC50 (human mGluR5A (Homo sapiens (Human))). Entry: O=C1N[C@H](c2cncc(C#CC(O)C3CC3(F)F)c2)[C@@H](c2cccc(F)c2)O1 (some centres unmarked)
OUTPUT: 6.48

INPUT: # value lookup — system human mGluR5A (Homo sapiens (Human)), readout pEC50, item O=C1N[C@H](c2cncc(C#CCC3CC3)c2)[C@@H](c2cccc(F)c2)O1
OUTPUT: 8.44

INPUT: Under human mGluR5A (Homo sapiens (Human)): pEC50 value of O=C1N[C@H](c2cncc(C#CC3CCC(F)(F)CC3)c2)[C@@H](c2cccc(F)c2)O1 ?
OUTPUT: 7.29

INPUT: Request: pEC50, test system human mGluR5A (Homo sapiens (Human)), entry O=C1N[C@H](c2cncc(C#CC(O)C3CC3)c2)[C@@H](c2cccc(F)c2)O1 (some centres unmarked) [Example 58]
OUTPUT: 6.69

A = CC(C)CC(O)C#Cc1cncc([C@H]2NC(=O)O[C@@H]2c2cccc(F)c2)c1 (some centres unmarked)
B = O=C1N[C@H](c2cncc(C#CCC3COC3)c2)[C@@H](c2cccc(F)c2)O1
C = N#CCCC#Cc1cncc([C@H]2NC(=O)O[C@@H]2c2cccc(F)c2)c1
D = O=C1N[C@H](c2cncc(C#CCn3ccnc3)c2)[C@@H](c2cccc(F)c2)O1
INPUT: Returns the items ordered by pEC50, from maximum to minimum. I would appreciate it if you listed the labels in the requested order.
OUTPUT: A, D, C, B

# credit: patent US9688669B2
